The measured values listed here are drawn from patent US20210188972A1.

- TESTED TARGET: T1, Human PTGFRN-ECD (extracellular domain; amino-acid 26 to amino-acid Y at 832), His-tag protein (human, UniProt Q9P2B2 26-832)
- T1 construct: range 26-832; Expressed in Hek-293 cells, purified on a nickel column; also called recombinant PTGFRN; not shown: His-tag
- T1 sequence (looked up): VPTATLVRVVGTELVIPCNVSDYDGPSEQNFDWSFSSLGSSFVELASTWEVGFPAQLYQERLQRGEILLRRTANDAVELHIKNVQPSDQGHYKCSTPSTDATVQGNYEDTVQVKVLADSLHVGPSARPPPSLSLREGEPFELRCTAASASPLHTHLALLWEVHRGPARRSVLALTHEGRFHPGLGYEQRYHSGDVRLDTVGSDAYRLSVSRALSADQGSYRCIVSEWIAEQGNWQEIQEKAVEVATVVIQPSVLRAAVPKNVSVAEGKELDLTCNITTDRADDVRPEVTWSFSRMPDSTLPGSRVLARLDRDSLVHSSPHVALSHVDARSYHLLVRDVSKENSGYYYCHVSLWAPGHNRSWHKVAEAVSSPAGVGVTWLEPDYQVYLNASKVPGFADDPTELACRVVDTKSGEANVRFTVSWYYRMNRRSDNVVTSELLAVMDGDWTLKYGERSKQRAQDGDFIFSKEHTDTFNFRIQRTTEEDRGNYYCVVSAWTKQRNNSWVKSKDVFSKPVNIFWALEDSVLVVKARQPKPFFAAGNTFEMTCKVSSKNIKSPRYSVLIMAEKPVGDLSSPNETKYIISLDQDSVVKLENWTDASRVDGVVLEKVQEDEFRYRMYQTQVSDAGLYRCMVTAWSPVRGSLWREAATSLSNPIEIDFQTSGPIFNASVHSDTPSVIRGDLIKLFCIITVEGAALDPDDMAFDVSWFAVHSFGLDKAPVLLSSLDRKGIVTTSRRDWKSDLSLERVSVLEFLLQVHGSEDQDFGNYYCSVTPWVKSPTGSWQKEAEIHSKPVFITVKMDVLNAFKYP
- ASSAY NAME: Octet Red96 pairing (binning matrix) on PTGFRN-ECD; capture Ab (1st loading Ab): 9D8
READOUT TYPE: Octet pairing response
Response field accepts a number only; no unit should be typed.

If you can, please state the reported Octet pairing response value of 3E10 (antibody, V domains shown) VH: EVHLVESGGDLVKPGGSLKLSCAASGFTFSSYGMSWVRQTPDKRLEWVASISSGGSHTYYPDRVKGRFTISRDNAKNTLYLQMSSLKSEDTAMYYCARHPSYYGSSLYCFDYWGQGTTLTVSS VL: DIQMTQTTSSLSASLGDRVTISCRASQDISNYLNWYQQKPDGTVKLLIYYTSRLHSGVPSRFSGSGSGTDFSLTISNLEQEDVATYFCQQGSTLPWTFGGGTKLEIK .
0.199

If you can, please state the reported Octet pairing response value of 6F6 (antibody, V domains shown, Mouse hybridoma mAb) VH: QVQLQQSGAELVKPGASVKVSCKASGYTFTTYWMHWVKQRPGQGLEWIGRIHPSDSDTNYNQKFKGKATLTLDKSSSTAYMQLSSLTSEDSAVYYCAMSLYYTMDYWGQGTSVTVSS VL: DIQMTQSPSSLSASLGGKVTITCKASQDIKKYIAWYQHKPGKGPRLLIHYTSTLQPGIPSRFSGSGSGRDYSFSISNLEPEDIATYYCLQYDNLLYTFGGGTKLEIK .
0.165

If you can, please state the reported Octet pairing response value of 2B12 (antibody, V domains shown, Mouse hybridoma mAb) VH: QVQLQQPGAELVKPGASVKMSCKASGYTFTSYWITWVKQGPGQGLEWIGDIYPGSGNTNYNEKFKSKATLTVDTSSSTAYMQLSSLTSEDSAVYYCARFFILTSYYFDYWGQGTTLTVSS VL: GIVMTQSQKFMSTTVGDRVSITCKASQNVGTAVAWFQQKPGQSPKLLIYLASNRYTGVPDRFTGSGSGTDFTLTISNMQSEDLADYFCQQYSNYPLTFGAGTKLELK .
0.0857
